tested on: SW480; assay: Cytotoxicity against human SW480 cells after 48 hrs by MTT assay; type: functional, cell-based; conditions: SW480, 48 h
measurementType: IC50 (µM)
Unit µM implied. Number only.

Prompt line: Quick check: IC50 of COc1ccc(C(=O)C[n+]2ccn(-c3ccc(-c4cc5ccccc5o4)cc3)c2)cc1 ?
Response line: 6.93

Prompt line: Quick check: IC50 of Brc1ccccc1C[n+]1ccn(-c2ccc(-c3cc4ccccc4o3)cc2)c1 ?
Response line: 12.7

Prompt line: Quick check: IC50 of O=C(C[n+]1ccn(-c2ccc(-c3cc4ccccc4o3)cc2)c1)c1ccccc1 ?
Response line: 10.3

Prompt line: Quick check: IC50 of O=C(C[n+]1ccn(-c2ccc(-c3cc4ccccc4o3)cc2)c1)c1ccc2ccccc2c1.[Br-] ?
Response line: 3.38
